These measurements were taken from ChEMBL document CHEMBL5620361.

Test method notes: Cmax in ICR mouse at 20 mg/kg, po measured for 24 hrs byb LC-MS/MS analysis
Format: ADME, organism-based
Recorded conditions: in vivo
Recorded metric: Cmax
The reply should consist of the numeric value with the unit placed after it.

Query: Which Cmax is listed for `N#Cc1ccc(Cn2nc(-c3cc(Cl)c(NCCCO)nc3F)c3ccccc3c2=O)cc1` ?
Reply: 27 ng/mL

---

Test method notes: Half life in ICR mouse at 20 mg/kg, po measured for 24 hrs byb LC-MS/MS analysis
Format: ADME, organism-based
Recorded conditions: in vivo
Recorded metric: half-life
Record the result as a number with its unit.

Query: Request the reported half-life associated with `N#Cc1ccc(Cn2nc(-c3cc(Cl)c(NCCCO)nc3F)c3ccccc3c2=O)cc1`
Reply: 59.4 min

---

Test method notes: Tmax in ICR mouse at 20 mg/kg, po measured for 24 hrs byb LC-MS/MS analysis
Assay type: ADME, organism-based
Recorded conditions: in vivo
Recorded metric: Tmax
Give the number first and the unit second.

Query: What Tmax value was documented for this compound, `N#Cc1ccc(Cn2nc(-c3cc(Cl)c(NCCCO)nc3F)c3ccccc3c2=O)cc1` ?
Reply: 2 h
